# experimental.target: Serotonin 2 (5-HT2) receptor (Rattus norvegicus, UniProt P30994+P08909+P14842)
# measurement.protocol: isplacement of [3H]DOB from rat cortex homogenate 5-hydroxytryptamine 2 receptor
Returns Satisfied if the recorded pIC50 is greater than or equal to 6, and Not satisfied otherwise.

CC(=O)Nc1ccc(Cc2noc(-c3ccc4[nH]cc(CCN)c4c3)n2)cc1 = Satisfied

**Query** Would you say NCCc1c[nH]c2ccc(-c3nc(C4CC4)no3)cc12 shows pIC50 at minimum 6?
**Result** Not satisfied

**Query** Would you say NCCc1c[nH]c2ccc(CCc3nc(Cc4ccccc4)no3)cc12 shows pIC50 at minimum 6?
**Result** Satisfied

**Query** Would you say Cc1noc(Cc2ccc3[nH]cc(CCN(C)C)c3c2)n1 shows pIC50 at minimum 6?
**Result** Not satisfied

**Query** Would you say CN(C)CCc1c[nH]c2ccc(Cc3nc(N)no3)cc12 shows pIC50 at minimum 6?
**Result** Satisfied
